SYSTEM TESTED: Cyclin-dependent kinase 2/cyclin E1 (Homo sapiens)
RUN DESCRIPTION: Inhibition of human recombinant C-terminal His6-tagged full length human Cdk2/human recombinant N-terminal GST-tagged full-length Cyclin E using histone H1 substrate after 40 mins by radiometric filter binding assay
pIC50: −log10 of the molar value.
Cut-off 6 on pIC50, inclusive. At or above means true (1); below means false (0).

CCOP(=O)(OCC)C(CNc1ccc(NC(=S)NC(=O)[C@]2(C)CCC[C@]3(C)c4ccc(C(C)C)cc4CC[C@@H]23)cc1)P(=O)(OCC)OCC; false (0)

Data request: In plain terms: is recorded pIC50 at least 6 for "CCOP(=O)(OCC)C(CNc1ccc(Cc2ccc(NC(=S)NC(=O)[C@]3(C)CCC[C@]4(C)c5ccc(C(C)C)cc5CC[C@@H]34)cc2)cc1)P(=O)(OCC)OCC" ?
Data returned: false (0)

Data request: In plain terms: is recorded pIC50 at least 6 for "CCOP(=O)(OCC)C(CNc1cc(Cl)c(NC(=S)NC(=O)[C@]2(C)CCC[C@]3(C)c4ccc(C(C)C)cc4CC[C@@H]23)cc1Cl)P(=O)(OCC)OCC" ?
Data returned: false (0)

Data request: In plain terms: is recorded pIC50 at least 6 for "CCOP(=O)(OCC)C(CNc1ccc(F)cc1NC(=S)NC(=O)[C@]1(C)CCC[C@]2(C)c3ccc(C(C)C)cc3CC[C@@H]12)P(=O)(OCC)OCC" ?
Data returned: true (1)

Data request: In plain terms: is recorded pIC50 at least 6 for "CCOP(=O)(OCC)C(CNc1ccc(S(=O)(=O)c2ccc(NC(=S)NC(=O)[C@]3(C)CCC[C@]4(C)c5ccc(C(C)C)cc5CC[C@@H]34)cc2)cc1)P(=O)(OCC)OCC" ?
Data returned: true (1)

Data request: In plain terms: is recorded pIC50 at least 6 for "CCOP(=O)(OCC)C(CNc1ccccc1NC(=S)NC(=O)[C@]1(C)CCC[C@]2(C)c3ccc(C(C)C)cc3CC[C@@H]12)P(=O)(OCC)OCC" ?
Data returned: false (0)
